Tested on: BICR78 (Oral Cavity Carcinoma);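 further: after 72 h of two-drug dosing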
Experiment: Bliss excess, mean over the matrix (fraction); higher = more synergy
Bliss excess reference
Give the figure only, with no unit attached.

>  <MOLECULE>
Cc1cc2ncnn2cc1Nc1ncc2c(n1)n(C1CCOCC1)c(=O)n2C [AZD7648] + CCN(CCO)CCCOc1ccc2c(Nc3cc(CC(=O)Nc4cccc(F)c4)[nH]n3)ncnc2c1 [AZD2811] (first compound max 10 µM, 7x7, partner max 1 µM)

>  <Bliss excess>
-0.0135

$$$$
>  <MOLECULE>
CN(CCO)CC[C@H](CSc1ccccc1)Nc1ccc(S(=O)(=O)NC(=O)c2ccc(N3CCC([C@@H](O)c4ccccc4-c4ccc(Cl)cc4)CC3)cc2)cc1S(=O)(=O)C(F)(F)F [AZD4320] + C=CCn1c(=O)c2cnc(Nc3ccc(N4CCN(C)CC4)cc3)nc2n1-c1cccc(C(C)(C)O)n1 [AZD1775] (first compound max 1 µM, partner max 1 µM)

>  <Bliss excess>
0.0149

$$$$
>  <MOLECULE>
O=C(c1cc(Cc2n[nH]c(=O)c3ccccc23)ccc1F)N1CCN(C(=O)C2CC2)CC1 [Olaparib] + COc1nnc2ccc(N3CCC(c4ccc(OCCN5CCN(C)C(=O)[C@H]5C)cc4)CC3)nn12 [AZD5153] (first compound max 10 µM, 7x7, partner max 1 µM)

>  <Bliss excess>
-0.0458

$$$$
>  <MOLECULE>
Cc1nc(-c2cn3c(n2)-c2ccc(-c4cnn(C(C)(C)C(N)=O)c4)cc2OCC3)n(C(C)C)n1 [Taselisib] + O=C(Nc1ccc2[nH]nc(-c3ccncc3)c2c1)[C@@H]1CCN(CC(=O)N2CCN(c3ccc(-c4ncccn4)cc3)CC2)C1 [SCH772984] (first compound max 10 µM, 7x7, partner max 5 µM)

>  <Bliss excess>
-0.011

$$$$
>  <MOLECULE>
N#Cc1cnc(Nc2cc(NC[C@H]3CNCCO3)c(C(F)(F)F)cn2)cn1 [SRA737] + CCc1c2c(nc3ccc(O)cc13)-c1cc3c(c(=O)n1C2)COC(=O)[C@]3(O)CC [SN-38] (first compound max 10 µM, 7x7, partner max 0.3 µM)

>  <Bliss excess>
-0.0015

$$$$

Next item in the queue.
Problem: Entry C[C@@H](Nc1cc(F)cc(F)c1)c1cc(C(=O)N(C)C)cc2c(=O)cc(N3CCOCC3)oc12 [AZD8186] + C1CN(CCC1(C(=O)N[C@@H](CCO)C2=CC=C(C=C2)Cl)N)C3=NC=NC4=C3C=CN4 [AZD5363] (first compound max 10 µM, 7x7, partner max 10 µM) has what Bliss excess?
Solution: -0.0269

----------
System: P31-FUJ (Acute Myeloid Leukemia)
Experiment: combination Emax (second highest fraction inhibited in the dose matrix, 72 h); higher = more inhibition; extreme values may be limits of the assay
combination Emax reference
Answer using only a numeral; do not append any unit.

Sample records with combination Emax:
>  <COMPOUND>
CN(CCO)CC[C@H](CSc1ccccc1)Nc1ccc(S(=O)(=O)NC(=O)c2ccc(N3CCC([C@@H](O)c4ccccc4-c4ccc(Cl)cc4)CC3)cc2)cc1S(=O)(=O)C(F)(F)F [AZD4320] + C=CCn1c(=O)c2cnc(Nc3ccc(N4CCN(C)CC4)cc3)nc2n1-c1cccc(C(C)(C)O)n1 [AZD1775] (first compound max 1 µM, partner max 1 µM)

>  <TARGET_ENTITY>
P31-FUJ (Acute Myeloid Leukemia)

>  <VALUE_OBSERVED>
0.983

$$$$
>  <COMPOUND>
NC1(C(=O)N[C@@H](CCO)c2ccc(Cl)cc2)CCN(c2ncnc3[nH]ccc23)CC1 [Capivasertib] + CC(=O)c1c(C)c2cnc(Nc3ccc(N4CCNCC4)cn3)nc2n(C2CCCC2)c1=O [Palbociclib] (first compound max 10 µM, 7x7, partner max 10 µM)

>  <TARGET_ENTITY>
P31-FUJ (Acute Myeloid Leukemia)

>  <VALUE_OBSERVED>
0.571

$$$$
>  <COMPOUND>
COc1cccc(OCCCN)c1-c1cc(Nc2cnc(C#N)cn2)n[nH]1 [Prexasertib] + CCc1c2c(nc3ccc(O)cc13)-c1cc3c(c(=O)n1C2)COC(=O)[C@]3(O)CC [SN-38] (first compound max 1 µM, 7x7, partner max 0.3 µM)

>  <TARGET_ENTITY>
P31-FUJ (Acute Myeloid Leukemia)

>  <VALUE_OBSERVED>
0.979

$$$$

Turning now to a further record.
Problem: I am curious: what combination Emax value has been reported for C=CCn1c(=O)c2cnc(Nc3ccc(N4CCN(C)CC4)cc3)nc2n1-c1cccc(C(C)(C)O)n1 [AZD1775] + O=C(c1cc(Cc2n[nH]c(=O)c3ccccc23)ccc1F)N1CCN(C(=O)C2CC2)CC1 [Olaparib] (first compound max 1 µM, partner max 10 µM) ?
Solution: 0.868

----------
Test system: P31-FUJ (Acute Myeloid Leukemia)
Test: combination Emax (second highest fraction inhibited in the dose matrix, 72 h); higher = more inhibition; extreme values may be limits of the assay
PROPERTY: combination Emax

Problem: I'd like to know its combination Emax. The molecule in question is COc1cccc(OCCCN)c1-c1cc(Nc2cnc(C#N)cn2)n[nH]1 [Prexasertib] + CN(C)CCCOc1ccc(-c2ccc3ncc4c(c3c2)n(C2CCOCC2)c(=O)n4C)cn1 [AZD0156] (first compound max 1 µM, 7x7, partner max 1 µM)
Solution: 0.998

Problem: What would you report for Cc1c2c(nn1C)CSCc1cc(n(C)n1)CSc1cc(c3ccccc3c1)OCCCc1c(C(=O)O)n(C)c3c-2c(Cl)ccc13 [AZD5991] + C1CN(CCC1(C(=O)N[C@@H](CCO)C2=CC=C(C=C2)Cl)N)C3=NC=NC4=C3C=CN4 [Capivasertib] (first compound max 1 µM, 7x7, partner max 3 µM) ?
Solution: 0.99

Problem: Also CC(=O)c1c(C)c2cnc(Nc3ccc(N4CCNCC4)cn3)nc2n(C2CCCC2)c1=O [Palbociclib] + CC1(C)CCC(CN2CCN(c3ccc(C(=O)NS(=O)(=O)c4ccc(NCC5CCOCC5)c([N+](=O)[O-])c4)c(Oc4cnc5[nH]ccc5c4)c3)CC2)=C(c2ccc(Cl)cc2)C1 [Venetoclax] (first compound max 10 µM, 7x7, partner max 1 µM) ?
Solution: 0.364

----------
System: SW48 (Colorectal Carcinoma)
Assay: combination Emax (second highest fraction inhibited in the dose matrix, 72 h); higher = more inhibition; extreme values may be limits of the assay
PROPERTY: combination Emax
// print number alone

# count of solved cases: 2
>  <MOLECULE>
CCc1c2c(nc3ccc(O)cc13)-c1cc3c(c(=O)n1C2)COC(=O)[C@]3(O)CC [SN-38] + O=C(c1cc(Cc2n[nH]c(=O)c3ccccc23)ccc1F)N1CCN(C(=O)C2CC2)CC1 [Olaparib] (first compound max 0.3 µM, 7x7, partner max 10 µM)

>  <combination Emax>
0.799

$$$$
>  <MOLECULE>
Cc1c2c(nn1C)CSCc1cc(n(C)n1)CSc1cc(c3ccccc3c1)OCCCc1c(C(=O)O)n(C)c3c-2c(Cl)ccc13 [AZD5991] + C=CCn1c(=O)c2cnc(Nc3ccc(N4CCN(C)CC4)cc3)nc2n1-c1cccc(C(C)(C)O)n1 [AZD1775] (first compound max 1 µM, partner max 1 µM)

>  <combination Emax>
0.402

$$$$

Problem: Requested field: combination Emax. Item: CC(=O)c1c(C)c2cnc(Nc3ccc(N4CCNCC4)cn3)nc2n(C2CCCC2)c1=O [Palbociclib] + Cc1c2c(nn1C)CSCc1cc(n(C)n1)CSc1cc(c3ccccc3c1)OCCCc1c(C(=O)O)n(C)c3c-2c(Cl)ccc13 [AZD5991] (first compound max 10 µM, 7x7, partner max 1 µM)
Solution: 0.409

----------
System: NCI-H1688 (Small Cell Lung Carcinoma)
Test: combination Emax (second highest fraction inhibited in the dose matrix, 72 h); higher = more inhibition; extreme values may be limits of the assay
Answer Not satisfied if combination Emax is under 0.6, and Satisfied if it is 0.6 or more.

>  <COMPOUND>
C[C@@H](c1ccc2nccn2c1)n1nnc2ncc(-c3cnn(C)c3)nc21 [Savolitinib] + Cc1c2c(nn1C)CSCc1cc(n(C)n1)CSc1cc(c3ccccc3c1)OCCCc1c(C(=O)O)n(C)c3c-2c(Cl)ccc13 [AZD5991] (first compound max 1 µM, 7x7, partner max 1 µM)

>  <ANSWER_LABEL>
Not satisfied

$$$$
>  <COMPOUND>
CC1(C)CCC(CN2CCN(c3ccc(C(=O)NS(=O)(=O)c4ccc(NCC5CCOCC5)c([N+](=O)[O-])c4)c(Oc4cnc5[nH]ccc5c4)c3)CC2)=C(c2ccc(Cl)cc2)C1 [Venetoclax] + C=CCn1c(=O)c2cnc(Nc3ccc(N4CCN(C)CC4)cc3)nc2n1-c1cccc(C(C)(C)O)n1 [AZD1775] (first compound max 1 µM, partner max 1 µM)

>  <ANSWER_LABEL>
Satisfied

$$$$
>  <COMPOUND>
COc1cccc2c1C(=O)c1c(O)c3c(c(O)c1C2=O)C[C@@](O)(C(=O)CO)C[C@@H]3O[C@H]1C[C@H](N)[C@H](O)[C@H](C)O1 [Doxorubicin] + Cc1cc2ncnn2cc1Nc1ncc2c(n1)n(C1CCOCC1)c(=O)n2C [AZD7648] (first compound max 1 µM, 7x7, partner max 10 µM)

>  <ANSWER_LABEL>
Satisfied

$$$$
>  <COMPOUND>
Cc1cc2ncnn2cc1Nc1ncc2c(n1)n(C1CCOCC1)c(=O)n2C [AZD7648] + CCN(CCO)CCCOc1ccc2c(Nc3cc(CC(=O)Nc4cccc(F)c4)[nH]n3)ncnc2c1 [AZD2811] (first compound max 10 µM, 7x7, partner max 1 µM)

>  <ANSWER_LABEL>
Not satisfied

$$$$

Problem: Please indicate if the recorded combination Emax for CN(C)CCCOc1ccc(-c2ccc3ncc4c(c3c2)n(C2CCOCC2)c(=O)n4C)cn1 [AZD0156] + CCN(CCO)CCCOc1ccc2c(Nc3cc(CC(=O)Nc4cccc(F)c4)[nH]n3)ncnc2c1 [AZD2811] (first compound max 1 µM, 7x7, partner max 1 µM) meets or exceeds 0.6.
Solution: Not satisfied
